List of Kd values.
- assay-system: T1, human PD-1/His (Sino Biological Inc.) (human, UniProt Q15116 25-170)
- T1 construct: extracellular domain; Bought protein; also called extracellular domain fragment of PD-1 protein containing His tag; not shown: His tag
- T1 sequence (Q15116 25-170): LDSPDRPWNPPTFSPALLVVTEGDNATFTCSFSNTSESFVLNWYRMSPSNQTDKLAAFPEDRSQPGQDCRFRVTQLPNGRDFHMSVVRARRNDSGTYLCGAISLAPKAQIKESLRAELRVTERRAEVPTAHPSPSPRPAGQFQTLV
- test-name: affinity and kinetic constants; method not restated, taken as BLI of Example 3.4
property-measured: Kd (nM)

binder	uom	qual	experimental-result
humanized antibody AB12M3 (antibody, V domains shown, the description speaks of human IgG4 or IgG1 and human kappa only as embodiments) VH: EVQLVESGGGLVQPGGSLRLSCAASGFTFSSYGMSWVRQAPGKGLEWVATISGGGRDTYYPDSVKGRFTISRDNAKNNLYLQMNSLRAEDTALYYCARQKDTSWFVHWGQGTLVTVSS VL: EIVLTQSPATLSLSPGERATLSCRASESVDDYGISFMNWFQQKPGQAPKLLIYVASNQGSGVPARFSGSGSGTDFSLTISSLEPDDTAMYFCQQSKEVPWTFGGGTKVEIK	nM	<	0.001
humanized antibody AB12N3 (antibody, V domains shown) VH: QVQLVESGGGVVQPGRSLRLSCAASGITFSNSGMHWVRQAPGKGLEWVAVWYDGSKRYYADSVKGRFTISRDNSKNTLYLQMNSLRAEDTAVYYCATNDDYWGQGTLVTV VL: EIVLTQSPATLSLSPGERATLSCRASQSVSSYLAWYQQKPGQAPRLLIYDASNRATGIPARFSGSGSGTDFTLTISSLEPEDFAVYYCQQSSNWPRTFGQGTKVEIK	nM	=	0.365
humanized antibody AB12N4 (antibody, V domains shown) VH: QVQLVESGGGVVQPGRSLRLSCAASGITFSNSGMHWVRQAPGKGLEWVAVIWYDGSKRYYADSVKGRFTISRDNSKNTLYLQMNSLRAEDTAVYYCATNDDYWGQGTLVTV VL: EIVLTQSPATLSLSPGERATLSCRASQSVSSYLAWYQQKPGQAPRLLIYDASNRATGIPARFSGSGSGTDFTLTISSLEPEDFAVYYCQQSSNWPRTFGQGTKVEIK	nM	=	0.378
humanized antibody AB12N5 (antibody, V domains shown) VH: QVQLVESGGGVVQPGRSLRLSCAASGITFSNSGMHWVRQAPGKGLEWVAVWYDGSKRYYADSVKGRFTISRDNSKNTLFLQMNSLRAEDTAVYYCATNDDYWGQGTLVTV VL: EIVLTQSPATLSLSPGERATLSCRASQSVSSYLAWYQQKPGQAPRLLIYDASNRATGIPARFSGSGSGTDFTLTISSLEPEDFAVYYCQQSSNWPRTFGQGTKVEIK	nM	=	0.414

Each recorded value in this set is attributed to patent US20190367617A1.
